# Test system: HL-60
# ASSAY REMARKS: cell viability (% survival relative to DMSO control); higher = less cytotoxic
# STUDY CONDITIONS: 10 µM; 72 h; co-treatment: AZD3965 100 nM
The following compounds are listed with their measured cell viability values.
The reply should be a number in %, with the unit left off.

// known answers, use as guide
| COMPOUND | DATA VALUE |
| --- | --- |
| O=NN(CCCl)C(=O)NCCCl | 101 |
| Cn1c2cc(S(C)=O)sc2c2cnn(Cc3cccc(N)c3)c(=O)c21 (centres undefined) | 100 |
| O=C(C(=O)c1ccc(Br)cc1)c1ccc(Br)cc1 | 102 |
| O=c1[nH]c(=O)n([C@H]2C[C@H](O)[C@@H](CO)O2)cc1I | 102 |
| Cl.OC[C@H]1NC[C@H](O)[C@@H](O)[C@H]1O | 102 |

Task: Record lookup: for HL-60, what cell viability belongs to `O=C(CCl)N(CCCNC(=O)C(F)(F)F)c1ccc([N+](=O)[O-])cc1` ?
Result: 0.129

Task: Record lookup: for HL-60, what cell viability belongs to NS(=O)(=O)c1ccc(NC(=O)Cc2ccccc2)cc1 [4-(2-Phenylacetamido)Benzenesulfonamide] ?
Result: 99.6

Task: Record lookup: for HL-60, what cell viability belongs to CC1Cc2ccccc2N1NC(=O)c1ccc(Cl)c(S(N)(=O)=O)c1 (centres undefined) [Indapamide] ?
Result: 95.9

Task: Record lookup: for HL-60, what cell viability belongs to `CN1CC(=O)N2[C@H](c3ccc4c(c3)OCO4)c3[nH]c4ccccc4c3C[C@@H]2C1=O` ?
Result: 109

====

The following compounds are listed with their measured cell viability values.
# Test system: HL-60
# ASSAY REMARKS: cell viability (% survival relative to DMSO control); higher = less cytotoxic
# STUDY CONDITIONS: 0.001 µM; 72 h; co-treatment: DMSO vehicle
The reply should be a number in %, with the unit left off.

// known answers, use as guide
| COMPOUND | cell viability (%) |
| --- | --- |
| O=C(c1c2ccccc2cc2ccccc12)N1CCC(N2CCC[C@@H](C(=O)N3CCOCC3)C2)CC1 | 103 |
| CCC(CC#N)OC(=O)N[C@@H](C)c1cccc(NC(=O)Nc2ccc(-c3cnco3)c(OC)c2)c1 (stereo in doubt) | 99.4 |

Could you now look at the following compound, please?
Task: Record lookup: for HL-60, what cell viability belongs to `CCCC(CCC)C(=O)O` ?
Result: 102

====

# Test system: MV4-11
# ASSAY REMARKS: cell viability (% survival relative to DMSO control, bortezomib = 0%); higher = less cytotoxic
# STUDY CONDITIONS: 100 nM; 72 h
The following compounds are listed with their measured cell viability values.
The reply should be a number in %, with the unit left off.

// known answers, use as guide
| COMPOUND | cell viability / % |
| --- | --- |
| Cc1[nH]n(-c2ccccc2)c(=O)c1C1(C(F)(F)F)C(=O)N(c2ccccc2)C2=C1C(=O)CC(C)(C)C2 (configuration not stated) | 99.4 |
| O=C(Cc1cccc(OC(F)(F)F)c1)Nc1ccc(CCCCc2nnc(NC(=O)Cc3ccccn3)s2)nn1 | 71.2 |
| Cn1cc(C[C@@H](N)C(=O)O)c2ccccc21 | 103 |
| OCCN1C[C@H](O)[C@@H](O)[C@H](O)[C@H]1CO | 90.4 |
| Clc1cc(Cl)c(OCC#CI)cc1Cl | 101 |

Task: Given the compound `CCCCCCCCCCCCC/C=C/[C@@H](O)[C@H](CO)N(C)C` , what is its reported cell viability?
Result: 95

Task: Given the compound `COc1cc(/C=C/c2ccc(OC)cc2OC)cc(OC)c1` , what is its reported cell viability?
Result: 98.4

Task: Given the compound `N[C@@H](CCC(=O)N[C@@H](CS)C(=O)NCC(=O)O)C(=O)O` , what is its reported cell viability?
Result: 107

Task: Given the compound CCC(CC#N)OC(=O)N[C@@H](C)c1cccc(NC(=O)Nc2ccc(-c3cnco3)c(OC)c2)c1 (stereo in doubt) , what is its reported cell viability?
Result: 35.8

Task: Given the compound `Oc1ncc(F)c(O)n1` , what is its reported cell viability?
Result: 85

====

The following compounds are listed with their measured cell viability values.
# Tested on: NOMO-1
# ASSAY REMARKS: cell viability (% survival relative to DMSO control, bortezomib = 0%); higher = less cytotoxic
# STUDY CONDITIONS: 100 nM; 72 h
The reply should be a number in %, with the unit left off.

// known answers, use as guide
| COMPOUND | UNIT TAG | DATA VALUE |
| --- | --- | --- |
| O[C@H]1[C@H](O)[C@@H](O)CN2CC[C@H](O)[C@H]12 [Castanospermine] | % | 105 |
| Clc1cc(Cl)c(OCC#CI)cc1Cl [Haloprogin] | % | 109 |
| O=c1[nH]c(=O)n([C@H]2C[C@H](O)[C@@H](CO)O2)cc1I [Idoxuridine] | % | 97.8 |
| NC(CCC(=O)NC(CSCc1ccc(Br)cc1)C(=O)NCC(=O)OC1CCCC1)C(=O)OC1CCCC1 (centres undefined) [S-para-Bromobenzylglutathione cyclopentyl diester] | % | 97.4 |
| O=[As]O[As]=O (centres undefined) [Arsenic trioxide] | % | 110 |
| CC(=O)N[C@@H](CS)C(=O)O [Acetylcysteine] | % | 98.8 |

Task: Given the compound Cc1nnc(-c2ccc(N3CCC(Oc4ccccc4C(F)(F)F)CC3)nn2)s1 [MF-438] , what is its reported cell viability?
Result: 92.8

Task: Given the compound CCCCCCCCCCCCC/C=C/[C@@H](O)[C@H](CO)N(C)C [N,N-Dimethylsphingosine] , what is its reported cell viability?
Result: 100

Task: Given the compound CC(C)(O)CNc1nc(Nc2ccnc(C(F)(F)F)c2)nc(-c2cccc(C(F)(F)F)n2)n1 [Enasidenib] , what is its reported cell viability?
Result: 107

====

The following compounds are listed with their measured cell viability values.
# Test system: myeloid leukemia patient primary cells Pat.13
# ASSAY REMARKS: cell viability (% survival relative to DMSO control); higher = less cytotoxic
# STUDY CONDITIONS: 10000 nM; 72 h
The reply should be a number in %, with the unit left off.

// known answers, use as guide
| COMPOUND | cell viability, % |
| --- | --- |
| O=C(/C=C/c1cccnc1)NCCCCC1CCN(C(=O)c2ccccc2)CC1 [Daporinad] | 7.15 |
| O=c1[nH]c(=O)n([C@H]2C[C@H](O)[C@@H](CO)O2)cc1I [Idoxuridine] | 91.9 |
| NS(=O)(=O)c1ccc(S(=O)(=O)Nc2cccc3c(Cl)c[nH]c23)cc1 [Indisulam] | 44.8 |

Task: Given the compound O=C(Cc1cccc(OC(F)(F)F)c1)Nc1ccc(CCCCc2nnc(NC(=O)Cc3ccccn3)s2)nn1 [CB-839] , what is its reported cell viability?
Result: 84

Task: Given the compound Cc1nnc(-c2ccc(N3CCC(Oc4ccccc4C(F)(F)F)CC3)nn2)s1 [MF-438] , what is its reported cell viability?
Result: 97.4

====

# System: HL-60
# ASSAY REMARKS: cell viability (% survival relative to DMSO control); higher = less cytotoxic
# STUDY CONDITIONS: 0.01 µM; 72 h; co-treatment: AZD3965 100 nM
ENDPOINT NAME: cell viability (%)
The reply should be a number in %, with the unit left off.

// known answers, use as guide
| COMPOUND | ASSAYED SYSTEM | UNIT TAG | cell viability |
| --- | --- | --- | --- |
| N=C(N)c1ccc(N=NNc2ccc(C(=N)N)cc2)cc1 | HL-60 | % | 98.5 |
| CC(C)(CS(=O)(=O)[O-])NC(=O)CC[N+](C)(C)CCO | HL-60 | % | 89.5 |
| CN1CC(=O)N2[C@H](c3ccc4c(c3)OCO4)c3[nH]c4ccccc4c3C[C@@H]2C1=O | HL-60 | % | 105 |
| O=C(Cc1cccc(OC(F)(F)F)c1)Nc1ccc(CCCCc2nnc(NC(=O)Cc3ccccn3)s2)nn1 | HL-60 | % | 104 |

Task: Given the compound `Cl.OC[C@H]1NC[C@H](O)[C@@H](O)[C@H]1O` , what is its reported cell viability?
Result: 108

Task: Given the compound `N[C@@H](CCC(=O)N[C@@H](CS)C(=O)NCC(=O)O)C(=O)O` , what is its reported cell viability?
Result: 98.7

Task: Given the compound CC(=O)N1CCN(c2ccc(OC[C@@H]3CO[C@@](Cn4ccnc4)(c4ccc(Cl)cc4Cl)O3)cc2)CC1 (racemic) , what is its reported cell viability?
Result: 95.6

Task: Given the compound `O[C@H]1[C@H](O)[C@@H](O)CN2CC[C@H](O)[C@H]12` , what is its reported cell viability?
Result: 97.5
